# target: SCD1 (Homo sapiens, UniProt O00767)
# Construct: host or cells: Saccharomyces cerevisiae ole1Δ strain (W303 pdr1Δ pdr3Δ background), plasmid pRS316, TDH3 promoter
# protocol text: Growth inhibition of yeast (ole1Δ) expressing human SCD1 as the sole desaturase
# Format: cell-based
# measurement setup: yeast strain with SCD1 plasmid, OD600 growth read at 40 h; read-out: SCD1 IC50
assay readout: IC50

Consider the following illustrative entries.
compound: Cn1nc(-c2nnc(N3CCC(Cc4cccc(F)c4)CC3)o2)ccc1=O [Compound 119]
IC50: > 45 µM
//
compound: Cn1nc(NC(=O)N2CCC(O)(Cc3cccc(F)c3)CC2)ccc1=O [Compound 47]
IC50: > 45 µM

Now for a further compound.
Value of measured IC50 for the entry Cn1nc(NC(=O)N2CCC(NCc3ccccc3C(F)(F)F)CC2)ccc1=O [Compound 105] : > 45 µM

----------
# target: SCD1 (Homo sapiens)
# Construct: host or cells: Saccharomyces cerevisiae ole1Δ strain (W303 pdr1Δ pdr3Δ background), plasmid pRS316, TDH3 promoter
# protocol text: Growth inhibition of yeast (ole1Δ) expressing human SCD1 as the sole desaturase
# Type: cell-based
# measurement setup: yeast strain with SCD1 plasmid, OD600 growth read at 40 h; read-out: SCD1 IC50
Entries annotated with measured IC50
Please give a number only; it is taken to be in µM.

Solved cases below.
compound: Cn1nc(NC(=O)N2CCC(Cc3cc(F)ccc3F)CC2)ccc1=O
display unit: µM
IC50: 1.18
//
compound: Cn1cc(NC(=O)N2CCC(Cc3cc(F)cc(F)c3)C2)ccc1=O (stereo not shown)
display unit: µM
IC50: 11.3
//
compound: Cn1nc(NC(=O)N2CCC(Oc3ccc(Cl)cc3)CC2)ccc1=O
display unit: µM
IC50: 13.3
//
compound: COc1ccccc1OC1CCN(C(=O)Nc2ccc(=O)n(C)n2)CC1
display unit: µM
IC50: 31.9

The compound listed as `Cn1nc(NC(=O)N2CC[C@@H](Oc3ccc(F)c(F)c3)C2)ccc1=O` shows IC50 equal to 17

Record `Cn1nc(NC(=O)N2CCC[C@@H](c3ccc(Cl)cc3)CC2)ccc1=O` , field IC50: 39

# compound `Cn1nc(NC(=O)N2CCC(Cc3cc(F)cc(C#N)c3)CC2)ccc1=O` ; its IC50 = 17.1

Summary for this compound, `Cn1nc(NC(=O)N2CCC(COc3ccccc3C(F)(F)F)CC2)ccc1=O` : IC50 is 4.49

For `Cn1nc(NC(=O)N2CCC(F)(Cc3cccc(F)c3)CC2)ccc1=O` the compound record lists IC50 as 1.68

Entry under test: `Cn1nc(NC(=O)N2CCC(F)(Cc3cccc(Cl)c3)CC2)ccc1=O` . Its IC50 was 0.64

Lab note: measured IC50 of `CCn1nc(NC(=O)N2CCC(Cc3cc(F)cc(F)c3)CC2)ccc1=O` was 4.96

GET /value?item= `Cn1nc(NC(=O)N2CC[C@@H](Oc3cc(F)cc(F)c3)C2)ccc1=O` &field=IC50 returns 8.1

What the record says about `Cc1ccccc1OC1CCN(C(=O)Nc2ccc(=O)n(C)n2)CC1` : IC50 is 0.43

Per the record, `Cn1nc(NC(=O)N2CC[C@H](Oc3cc(F)cc(F)c3)C2)ccc1=O` has IC50 of 0.33

Measured IC50 of `Cn1nc(-c2noc(N3CCC(Cc4ccc(F)c(F)c4)CC3)n2)ccc1=O` : 4.9

----------
# target: SCD1 (Homo sapiens)
# Construct: host or cells: Saccharomyces cerevisiae ole1Δ strain (W303 pdr1Δ pdr3Δ background), plasmid pRS316, TDH3 promoter
# Sequence (O00767 1-359): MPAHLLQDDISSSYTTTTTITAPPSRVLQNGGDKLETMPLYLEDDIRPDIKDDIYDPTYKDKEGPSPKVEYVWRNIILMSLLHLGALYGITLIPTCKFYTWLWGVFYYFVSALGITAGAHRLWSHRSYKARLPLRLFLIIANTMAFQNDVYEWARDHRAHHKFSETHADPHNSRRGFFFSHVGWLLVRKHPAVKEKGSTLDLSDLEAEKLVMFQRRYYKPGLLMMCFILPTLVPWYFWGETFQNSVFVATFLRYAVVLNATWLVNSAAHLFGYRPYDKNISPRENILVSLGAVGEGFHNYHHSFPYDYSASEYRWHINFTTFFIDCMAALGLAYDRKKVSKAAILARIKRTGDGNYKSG
# protocol text: Growth inhibition of yeast (ole1Δ) expressing human SCD1 as the sole desaturase
# Assay type: cell-based
# measurement setup: yeast strain with SCD1 plasmid, OD600 growth read at 40 h; read-out: SCD1 IC50
pIC50: −log10 of the molar value.
Each entry below carries its recorded pIC50.

Worked cases, pIC50 given:
structure smiles: Cn1nc(NC(=O)N2CCC(F)(Cc3cc(F)cc(F)c3)CC2)ccc1=O
target: SCD1 (Homo sapiens)
pIC50: < 4.35
//
structure smiles: Cn1nc(NC(=O)N2CCC(OCc3ccccc3F)CC2)ccc1=O
target: SCD1 (Homo sapiens)
pIC50: < 4.35

Tested on SCD1 (Homo sapiens), the item `Cn1nc(NC(=O)N2CCN(Cc3cccc(Cl)c3)CC2)ccc1=O` showed pIC50 equal to < 4.35
